B1: HHH_rd1_0493 (parent)
chain: RDEDEKEKIKEALKRGNEDKAKEIAKRANVSPEEYERLRKEAE

variants of: B1; assay: folding stability dG (cDNA display proteolysis); higher = more stable; conditions: PBS, room temperature
readout: folding stability dG (kcal/mol)
Give the number; kcal/mol is assumed, so skip it.

# variant.description, folding stability dG (kcal/mol)
records = [
    ("D4N", 2.89),
]

Look up folding stability dG for this variant: E23G 1.92

Find the recorded folding stability dG belonging to E23Y and report it. 1.79

Look up folding stability dG: A12P 0.229

Param item = I24D ; retrieve measured folding stability dG. 0.95

Recorded folding stability dG of G16R , please. 1.97

These data points were gathered from the MegaScale stability set (Tsuboyama et al. 2023).
